# Test system: A549
# protocol_text: Cytotoxicity against human A549 cells assessed as decrease in cell viability after 4 days by MTT assay
# Assay type: functional, cell-based
# applied_conditions: A549, 96 h
observable: IC50

For the molecule shown here, Cc1c(O)ccc2c1[C@H](Cn1cc(-c3ccccn3)nn1)[C@@]13CC(=O)[C@@](C)(CC[C@@H]21)C3 , give the reported IC50.
> 20 µM

For the molecule shown here, C=C1C(=O)[C@]23C[C@@]1(O)CC[C@H]2c1ccc(O)c(C)c1[C@@H]3Cn1cc(-c2ccc(F)cc2)nn1 , give the reported IC50.
0.94 µM

For the molecule shown here, C=C1C[C@]23C[C@@]1(O)CC[C@H]2c1cc(Br)c(O)c(C)c1[C@@H]3Cn1cc(-c2ccc(OC)cc2)nn1 , give the reported IC50.
> 20 µM

For the molecule shown here, Cc1c(O)ccc2c1[C@H](Cn1cc(-c3ccc(F)cc3)nn1)[C@@]13CC(=O)[C@@](C)(CC[C@@H]21)C3 , give the reported IC50.
> 20 µM

For the molecule shown here, Cc1ccc(S(=O)(=O)Oc2ccc3c(c2C)[C@H](Cn2cc(-c4ccccc4)nn2)[C@@]24CC(=O)[C@@](C)(CC[C@@H]32)C4)cc1 , give the reported IC50.
> 20 µM

For the molecule shown here, Cc1c(O)ccc2c1[C@H](Cn1cc(-c3ccc(Cl)cc3)nn1)[C@@]13CC(=O)[C@@](C)(CC[C@@H]21)C3 , give the reported IC50.
> 20 µM

For the molecule shown here, C=C1C(=O)[C@]23C[C@@]1(O)CC[C@H]2c1ccc(O)c(C)c1[C@@H]3Cn1cc(-c2ccccn2)nn1 , give the reported IC50.
1.57 µM

* * *

# System: A549
# protocol_text: Cytotoxicity against human A549 cells assessed as decrease in cell viability after 4 days by MTT assay
# Type: functional, cell-based
# applied_conditions: A549, 96 h
observable: IC50

Item C=C1C[C@]23C[C@@]1(O)CC[C@H]2c1ccc(O)c(C)c1[C@@H]3Cn1cc(-c2ccccn2)nn1 with A549 - IC50?
> 20 µM

Item C=C1C(=O)[C@]23C[C@@]1(O)CC[C@H]2c1ccc(O)c(C)c1[C@@H]3Cn1cc(-c2ccc(Br)cc2)nn1 with A549 - IC50?
1.14 µM

Item Cc1ccc(-c2cn(C[C@H]3c4c(ccc(O)c4C)[C@@H]4CC[C@@]5(C)C[C@]43CC5=O)nn2)cc1 with A549 - IC50?
> 20 µM

Item C=C1C[C@]23C[C@@]1(O)CC[C@H]2c1ccc(O)c(C)c1[C@@H]3Cn1cc(-c2ccc(Cl)cc2)nn1 with A549 - IC50?
> 20 µM

Item C=C1C(=O)[C@]23C[C@@]1(O)CC[C@H]2c1ccc(O)c(C)c1[C@@H]3Cn1cc(-c2ccc(Cl)cc2)nn1 with A549 - IC50?
0.64 µM

Item C=C1C[C@]23C[C@@]1(O)CC[C@H]2c1ccc(OS(=O)(=O)c2ccc(C)cc2)c(C)c1[C@@H]3Cn1cc(-c2ccc(Br)cc2)nn1 with A549 - IC50?
> 20 µM

Item C=C1C(=O)[C@]23C[C@@]1(O)CC[C@H]2c1ccc(O)c(C)c1[C@@H]3Cn1cc(-c2ccc(C)cc2)nn1 with A549 - IC50?
1.26 µM
